# assayed-system: T1, human Galectin-3 (Gal3), full-length recombinant (human, UniProt P17931 2-250)
# T1 construct: treated here as one molecule; also called hGAL3; hGal3
# T1 sequence (P17931 2-250 limits assumed): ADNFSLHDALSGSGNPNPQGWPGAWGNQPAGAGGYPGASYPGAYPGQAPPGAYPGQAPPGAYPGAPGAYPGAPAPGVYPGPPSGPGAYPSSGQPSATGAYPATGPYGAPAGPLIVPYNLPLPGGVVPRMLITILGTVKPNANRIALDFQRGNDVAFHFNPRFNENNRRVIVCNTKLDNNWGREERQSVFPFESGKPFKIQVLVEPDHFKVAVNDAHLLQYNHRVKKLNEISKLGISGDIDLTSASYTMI
# experiment: not stated. Exponent is printed without a minus sign; value taken as a negative power of ten because the column is a KD in M
pKd: −log10 of the molar value.
reported-metric: pKd

binder	recorded-result
F846TC.16B5 (antibody, human IgG4 S228P, kappa, V domains shown, also called 846T.16B5) VH: QIQLVQSGPELKKPGETVKISCKASGYTFTNYGMNWVKQAPGKGLKWMGWINTYTGEPAYADDFKGRFAFSLETSASTAYLQINNLKNEDMATYFCARWGGYDGDYYAMDYWGQGTSVTVSS VL: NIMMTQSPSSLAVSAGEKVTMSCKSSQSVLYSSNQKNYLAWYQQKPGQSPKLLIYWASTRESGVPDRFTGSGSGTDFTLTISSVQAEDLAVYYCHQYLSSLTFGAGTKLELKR	9.03
F846C.2H3 (antibody, human IgG4 S228P, kappa, V domains shown, also called 846.2H3) VH: QIQLVQSGPELKKPGETVKISCKASGYTFTNYGMNWVKQAPGKGLKWMGWINTYTGEPSYADDFKGRFAFSLETSASTAYLQINNLKNEDMATYFCARWGGYDGDYYAMDYWGQGTSVTVSS VL: NIMMTQSPSSLAVSAGEKVTMSCKSSQSVLYSSNQKNYLAWYQQKPGQSPKLLIYWASTRESGVPDRFTGSGSGTDFTLTISSVQPEDLAVYYCHQYLSSLTFGAGTKLELKR	8.76
F847C.4B10 (antibody, human IgG4 S228P, kappa, V domains shown) VH: EVQLVETGGGLVKPGGSLKLSCAASGFTFSSYAMSWVRQTPEKRLEWVASISSGGSTYYPDSVKGRFTISRDNARNILYLQMSSLRSEDTAMYYCTRFTTVVEMDYWGQGTSVTVSS VL: QAVVTQESALTTSPGETVTLTCRSSTGAVTTSNYANWVQEKPDHLFTGLIGGTNNRAPGVPARFSGSLIGDKAALTITGAQTEDEAIYFCALWYSNHLVFGGGTKLTVLR	7.67
F846TC.14A2 (antibody, human IgG4 S228P, kappa, V domains shown, also called 846T.14A2; 846.14A2) VH: QIQLVQSGPELKKPGETVKISCKASGYTFTNYGMNWVKQAPGKGLKWMGWINTYTGEPTYAGDLKGRFAFSLETSASTAYLQINNLKNEDTATYFCVRYTMDYWGQGTSVTVSS VL: QAVVTQESALTTSPGETVTLTCRSSTGAVTTSNYANWVQEKPDHLFTGLIGGINNRVPGVPARFSGSLIGDKAALTITGAQTEDEAIYFCALWYSNHWVFGGGTKLTVLR	8.49
